// data source = patent US20170253601A1

target: SMYD2 (Homo sapiens, UniProt Q9NRG4); construct: Full length SMYD2 (NP 064582.2) was cloned; His6 (N, cleaved yes); FLAG (N); made in house; host or cells: Sf9 insect cells; assay: SMYD2 Biochemical Assay (3H-SAM, biotinylated peptide substrate, Flashplate); conditions: Table 2; average of n = 1 to n = 50; read-out: SMYD2 Biochem IC50
Sequence (Q9NRG4 whole entry): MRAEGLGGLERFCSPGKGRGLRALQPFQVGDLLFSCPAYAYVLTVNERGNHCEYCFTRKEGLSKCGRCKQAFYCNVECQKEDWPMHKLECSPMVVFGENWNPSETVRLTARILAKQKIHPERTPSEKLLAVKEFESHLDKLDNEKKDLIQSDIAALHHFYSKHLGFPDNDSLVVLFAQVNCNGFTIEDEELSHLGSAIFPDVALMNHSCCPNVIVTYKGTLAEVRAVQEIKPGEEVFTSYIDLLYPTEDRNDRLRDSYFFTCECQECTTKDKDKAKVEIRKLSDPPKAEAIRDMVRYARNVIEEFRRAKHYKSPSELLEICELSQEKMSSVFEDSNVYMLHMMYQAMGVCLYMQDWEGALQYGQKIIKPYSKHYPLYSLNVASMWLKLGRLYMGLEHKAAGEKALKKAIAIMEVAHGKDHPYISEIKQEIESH
readout-type: IC50

Prompt: For C[C@H]1CN(Cc2cccnc2)C[C@H]1NC(=O)c1cc(C2CC2)on1 (racemic) [compound 107] , what is its reported IC50?
Completion: 17.7 µM

Prompt: For C[C@@H]1CN(C2CCS(=O)(=O)CC2)C[C@@H]1NC(=O)c1cc(C2CC2)on1 (racemic) [compound 74] , what is its reported IC50?
Completion: 14 µM

Prompt: For C[C@@H]1CN(C2CCN(C)CC2)C[C@@H]1NC(=O)c1cc(C2CC2)on1 (racemic) [compound 82] , what is its reported IC50?
Completion: > 50 µM

Prompt: For C[C@H]1CN(S(C)(=O)=O)C[C@H]1NC(=O)c1cc(C2CC2)on1 (racemic) [compound 66] , what is its reported IC50?
Completion: > 50 µM
